Recorded measurements of remaining activity at 1 µM, one per entry
- target-entity: CDK2-Cyclin A (Homo sapiens)
- assay-name: Kinase profiling (radiometric filter-binding)
- Assay type: biochemical
- experimental-context: 1 µM inhibitor, read-out: Residual activity, %
Square brackets hold non-standard residues; d marks the D form. Peptide text beside a SMILES is read from it. * marks the point of attachment. X3 = O=C(CCCCCNCc1nc2c(sc3cc(Br)cnc32)c(=O)[nH]1)*
Respond numerically; units are % and should not be typed.

Examples with their reported remaining activity at 1 µM follow.
compound=N=C(N)NCCC[C@@H](NC(=O)CCCCCNC(=O)Cn1cnc2c(I)c(I)c(I)c(I)c21)C(=O)N[C@H](CCCNC(=N)N)C(=O)N[C@H](CCCNC(=N)N)C(=O)N[C@H](CCCNC(=N)N)C(=O)N[C@H](CCCNC(=N)N)C(=O)N[C@H](CCCNC(=N)N)C(=O)N[C@H](CCCCN)C(N)=O observed_property="remaining activity at 1 µM" measure_unit=% readout_number=17
compound=N=C(N)NCCC[C@@H](NC(=O)CNC(=O)[C@@H](CCCNC(=N)N)NC(=O)[C@@H](CCCNC(=N)N)NC(=O)CCCCCCCNCc1nc2c(sc3ccc(Br)cc32)c(=O)[nH]1)C(=O)N[C@H](CCCCN)C(N)=O observed_property="remaining activity at 1 µM" measure_unit=% readout_number=105
compound="N=C(N)NCCC[C@@H](NC(=O)CCCCCNCc1nc2c(sc3cc(Br)cnc32)c(=O)[nH]1)C(=O)N[C@H](CCCNC(=N)N)C(=O)N[C@H](CCCNC(=N)N)C(=O)N[C@H](CCCNC(=N)N)C(=O)N[C@H](CCCNC(=N)N)C(=O)N[C@H](CCCNC(=N)N)C(=O)N[C@H](CCCCN)C(N)=O [ARC-3126, BPTP-Ahx-(D-Arg)6-D-Lys-NH2] (X3-[dR][dR][dR][dR][dR][dR][dK]-NH2)" observed_property="remaining activity at 1 µM" measure_unit=% readout_number=106
compound=N=C(N)NCCC[C@@H](NC(=O)CNC(=O)[C@@H](CCCNC(=N)N)NC(=O)[C@@H](CCCNC(=N)N)NC(=O)CCCCCCCNCc1nc2c(sc3cc(Br)cnc32)c(=O)[nH]1)C(=O)N[C@H](CCCCN)C(N)=O observed_property="remaining activity at 1 µM" measure_unit=% readout_number=106

Challenge: State the recorded remaining activity at 1 µM for this entry: N=C(N)NCCC[C@@H](NC(=O)CNC(=O)[C@@H](CCCNC(=N)N)NC(=O)[C@@H](CCCNC(=N)N)NC(=O)Cn1cc(CNCc2nc3c(sc4ccc(Br)cc43)c(=O)[nH]2)nn1)C(=O)N[C@H](CCCCN)C(N)=O
Response given: 100
